- System: Aβtotal
- PROCEDURE DETAILS: Screening for γ-secretase-modulating activity, Method 2: Aβtotal Alphalisa in supernatant of SKNBE2 cells carrying APP 695 wild type (Table 12c)
- Assay type: cell-based
- RECORDED CONDITIONS: Homo sapiens, Method 2, Table 12c, incubated overnight
pIC50: −log10 of the molar value.
PARAMETER: pIC50

Solved cases below.
SMILES CODE	OBSERVED
COc1cccc(-c2cn3cccc(Nc4ccc(-n5cnc(C)c5)c(OC)c4)c3n2)c1	5.24
Cc1cn(-c2ccc(Nc3cccn4cc(CC5CCOCC5)nc34)cc2F)cn1	5.08
COc1cc(Nc2ccnn3cc(-c4cc(F)ccc4C)nc23)ccc1-n1cnc(C)c1	5.32
COc1nc(Nc2cc(C(C)C)nn3cc(-c4ccccc4Cl)nc23)ccc1-n1cnc(C)c1	5.08

(A) COc1cc(Nc2cccn3c(OC)c(-c4ccc(F)cc4)nc23)ccc1-n1cnc(C)n1
(B) COCCOCCOCC(=O)NCc1ccc(C)c(-c2cn3cccc(Nc4ccc(-n5cnc(C)c5)c(OC)c4)c3n2)c1
Would you let me know which has the greater pIC50 value, A or B ? In your reply, give the label of the chosen option.
B
(B: 5.44, A: 5.16)

----------
- System: Aβtotal
- PROCEDURE DETAILS: Demonstration of in vivo efficacy: Aβtotal lowering in brain after single oral dose (Table 13)
- RECORDED CONDITIONS: mouse brain soluble fraction, mean, compared to untreated animals
PARAMETER: Aβtotal (% Ctrl)_Mean
Just the number in % Ctrl, nothing appended.

SMILES CODE	ASSAY TARGET	Aβtotal (% Ctrl)_Mean
COc1ccccc1-c1cn2cccc(Nc3ccc(-n4cnc(C)c4)c(OC)c3)c2n1	Aβtotal	113
COc1cc(Nc2cccn3cc(C4CCOCC4)nc23)ccc1-n1cnc(C)c1	Aβtotal	111
COc1cccc(-c2nc3c(Nc4ccc(-n5cncn5)c(OC)c4)cccn3c2C)c1	Aβtotal	105
COc1cc(Nc2cccn3c(C)c(-c4ccc(F)cc4F)nc23)ccc1-n1cnc(C)c1	Aβtotal	94
COc1cccc(-c2nc3c(Nc4ccc(-n5cnc(C)c5)c(OC)c4)cccn3c2C)c1	Aβtotal	100

Let me check: COc1cc(Nc2cccn3c(C)c(-c4c(F)cccc4F)nc23)ccc1-n1cnc(C)c1 , system Aβtotal, measured Aβtotal (% Ctrl)_Mean is 94

Noted Aβtotal (% Ctrl)_Mean for Cc1ncn(-c2ccc(Nc3cccn4cc(-c5ccccc5C)nc34)cn2)n1 , tested on Aβtotal: 96

Entry COc1cc(Nc2cccn3cc(Cc4ccc(F)cc4)nc23)ccc1-n1cnc(C)c1 under Aβtotal had Aβtotal (% Ctrl)_Mean of 95

----------
- Tested on: Aβ42
- PROCEDURE DETAILS: Screening for γ-secretase-modulating activity, Method 1: Aβ42 sandwich ELISA in supernatant of SKNBE2 cells carrying APP 695 wild type (Tables 12a, 12b)
- Type: cell-based
- RECORDED CONDITIONS: Homo sapiens; Table 12b; Method 1, SKNBE2 cells carrying APP 695 wild type, cell supernatant ELISA; averaged IC50 values, percentage of control vs log concentration
PARAMETER: IC50 (nM)

SMILES CODE	UNIT TEXT	OBSERVED
Cc1ncn(-c2ccc(Nc3cccn4cc(-c5ccc(F)cc5C)nc34)cc2F)n1	nM	72
Cc1cn(-c2ccc(Nc3cccn4cc(C)nc34)cc2F)cn1	nM	1660
COc1cc(Nc2cccn3c(CO)c(-c4ccc(F)cc4)nc23)ccc1-n1cnc(C)c1	nM	13

(A) COc1cc(Nc2cccn3cc(-c4cccc(Cl)c4)nc23)ccc1-n1cnc(C)c1
(B) COc1cc(Nc2cccn3cc(-c4ccc(F)cc4)nc23)ccc1-n1cnc(C)n1
(C) COc1cc(Nc2cccn3cc(-c4cc(C#N)ccc4C)nc23)ccc1-n1cnc(C)n1
Your job: order these 3 records by IC50, ascending. Provide your answer as the labels ordered per the instruction.
A, B, C
(A: 49 nM, B: 263 nM, C: 631 nM)

----------
Quick list: Aβtotal (% Ctrl)_Mean per entry.
- System: Aβtotal
- PROCEDURE DETAILS: Demonstration of in vivo efficacy: Aβtotal lowering in brain after single oral dose (Table 13)
- RECORDED CONDITIONS: mouse brain soluble fraction, mean, compared to untreated animals
# unit: % Ctrl | format: bare number

SMILES CODE	PARAMETER	OBSERVED
Cc1ncn(-c2ccc(Nc3cccn4cc(-c5ccc(F)cc5C)nc34)cn2)n1	Aβtotal (% Ctrl)_Mean	97
Cc1ncn(-c2ccc(Nc3cccn4c(C)c(-c5ccccc5Cl)nc34)nc2)n1	Aβtotal (% Ctrl)_Mean	104
COc1cc(Nc2cccn3cc(-c4ccccc4C)nc23)ccc1-n1cnc(C)n1	Aβtotal (% Ctrl)_Mean	99

COc1cc(Nc2cccn3cc(-c4ccc(N5CCOCC5)cc4)nc23)ccc1-n1cnc(C)c1 tested on Aβtotal gave Aβtotal (% Ctrl)_Mean: 99

----------
- Tested on: Aβ42
- PROCEDURE DETAILS: Screening for γ-secretase-modulating activity, Method 2: Aβ42 Alphalisa in supernatant of SKNBE2 cells carrying APP 695 wild type (Table 12c)
- Assay type: cell-based
- RECORDED CONDITIONS: Method 2, Table 12c, incubated overnight
PARAMETER: IC50 (nM)

# annotated cases, reported IC50 shown
SMILES CODE	ASSAY TARGET	OBSERVED
COc1cc(Nc2cc(C3CCOCC3)nn3cc(C)nc23)ccc1-n1cnc(C)c1	Aβ42	447
COc1cc(Nc2cccn3c(CN(C)C)c(-c4ccccc4)nc23)ccc1-n1cnc(C)n1	Aβ42	62
COc1nc(Nc2cccn3cc(C)nc23)ccc1-n1cnc(C)c1	Aβ42	120
COc1cc(Nc2nccn3cc(-c4ccc(F)cc4)nc23)ccc1-n1cnc(C)c1	Aβ42	72
COc1cc(Nc2nccn3cc(-c4ccc(F)cc4)nc23)ccc1-n1cnc(C)n1	Aβ42	380

(a) COc1nc(Nc2cccn3c(C)c(-c4ccccc4C(F)(F)F)nc23)ccc1-n1cnc(C)c1
(b) CCOC(=O)c1cn2cccc(Nc3ccc(-n4cnc(C)c4)c(OC)c3)c2n1
Kindly compare a with b and tell me which has the lower IC50 figure. Answer format: the label of the selected item.
a

(P) COc1cc(Nc2cc(C(C)C)nn3cc(C)nc23)ccc1-n1cnc(C)c1
(Q) COc1cc(Nc2cc(Cl)nn3cc(-c4cc(F)ccc4C)nc23)ccc1-n1cnc(C)c1
Which shows the larger IC50 value: P or Q ? The response must carry the label of the picked entry.
P

----------
- System: Aβ42
- PROCEDURE DETAILS: Screening for γ-secretase-modulating activity, Method 1: Aβ42 sandwich ELISA in supernatant of SKNBE2 cells carrying APP 695 wild type (Tables 12a, 12b)
- Assay type: cell-based
- RECORDED CONDITIONS: Homo sapiens; Table 12b; Method 1, SKNBE2 cells carrying APP 695 wild type, cell supernatant ELISA; averaged IC50 values, percentage of control vs log concentration
pIC50: −log10 of the molar value.
PARAMETER: pIC50

Below, 3 compounds whose answers are already recorded.
COMPOUND	PARAMETER	OBSERVED
COc1cc(Nc2cccn3cc(Cc4ccc(F)cc4)nc23)ccc1-n1cnc(C)c1 [Compound 3]	pIC50	6.83
COc1cc(Nc2cccn3cc(C4CC4)nc23)ccc1-n1cnc(C)c1 [Compound 116]	pIC50	6.53
COc1cc(Nc2cccn3cc(-c4ccccc4Cl)nc23)ccc1-n1cnc(C)c1 [Compound 14]	pIC50	7.39

(a) COc1ccc(-c2cn3cccc(Nc4ccc(-n5cnc(C)c5)c(OC)c4)c3n2)c(OC)c1 [Compound 37]
(b) COc1cc(Nc2cccn3c(Cl)c(-c4ccc(F)cc4)nc23)ccc1-n1cnc(C)c1 [Compound 2]
Select one. Lower pIC50: a or b State your choice using its label.
a

----------
- Test system: Aβ42
- PROCEDURE DETAILS: Screening for γ-secretase-modulating activity, Method 1: Aβ42 sandwich ELISA in supernatant of SKNBE2 cells carrying APP 695 wild type (Tables 12a, 12b)
- Format: cell-based
- RECORDED CONDITIONS: Homo sapiens; Table 12b; Method 1, SKNBE2 cells carrying APP 695 wild type, cell supernatant ELISA; averaged IC50 values, percentage of control vs log concentration
PARAMETER: IC50 (nM)

(1) COc1cc(Nc2cccn3cc(C)nc23)ccc1-n1cncn1 [Compound 80]
(2) COc1cc(Nc2cccn3cc(C4CCOCC4)nc23)ccc1-n1cnc(C)n1 [Compound 136]
(3) COc1cc(Nc2cccn3cc(C(C)(C)C)nc23)ccc1-n1cnc(C)c1 [Compound 9]
(4) CC(=O)N(C)Cc1c(-c2ccccc2Cl)nc2c(Nc3ccc(-n4cnc(C)c4)c(F)c3)cccn12 [Compound 102]
Exam item: list the entries in increasing order of IC50. Please write the labels in the order that was asked for.
4, 3, 2, 1
(4: 10 nM, 3: 282 nM, 2: 676 nM, 1: 3800 nM)
